Data origin: paper PMC6581936

system: CYP2C9; test: CYP2C9 inhibition assay in HLM and HH (diclofenac); type: biochemical, human; conditions: diclofenac as substrate
OBSERVATION_TYPE: difference of IC50,app between HH and HLM

1. COCc1oc(S(=O)(=O)NC(=O)Nc2ncc(Br)s2)cc1C | identical
2. Cc1cccc(S(=O)(=O)NC(=O)Nc2cc(Br)cc(N)n2)c1 | identical
3. COCc1oc(S(=O)(=O)NC(=O)Nc2nc(C)c(Br)s2)cc1C | identical
4. COCCc1sc(S(=O)(=O)NC(=O)Nc2snc(C)c2Br)cc1C | 12 fold

###

Experiment: pKa of RO compounds
Assay type: physicochemical
Conditions: method not stated
Source text: Table II Properties of the RO Discovery Compound Series and Results in HLM and Suspended HH | column: pKa
OBSERVATION_TYPE: pKa

1 = COCCc1sc(S(=O)(=O)NC(=O)Nc2snc(C)c2Br)cc1C
2 = Cc1cccc(S(=O)(=O)NC(=O)Nc2cc(Br)cc(N)n2)c1
Looking only at measured pKa, which entry is lower, 1 or 2 ? Which one? Tell me its label.
1
